Data provenance: paper PMC12621043

Target: DAPK1 (DAPK1A) (Homo sapiens)
Construct: purchased in-house DSF kinase panel (SGC-style construct names; the trailing letter is the construct ID)
Sequence (P53355 1-285): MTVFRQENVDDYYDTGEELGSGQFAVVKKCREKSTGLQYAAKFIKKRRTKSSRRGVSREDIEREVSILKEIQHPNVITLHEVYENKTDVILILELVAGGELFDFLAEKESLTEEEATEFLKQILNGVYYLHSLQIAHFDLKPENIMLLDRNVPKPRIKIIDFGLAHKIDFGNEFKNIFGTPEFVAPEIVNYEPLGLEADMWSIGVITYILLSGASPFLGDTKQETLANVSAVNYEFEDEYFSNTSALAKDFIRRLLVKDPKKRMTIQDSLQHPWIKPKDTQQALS
Assay: DSF Tm panel
Format: binding
Settings: 10 μM compound
Quick rule for you: ΔTm at 10 µM under 0.2 °C gets class 1, anything else gets class 0.

chem.smiles: COc1ccccc1CNC(=O)Nc1ccc2cc1OCCOCCNc1ccn3ncc-2c3n1
target: DAPK1 (DAPK1A) (Homo sapiens)
answer.label: class 1

chem.smiles: O=C(NCc1ccccc1C(F)(F)F)Nc1ccc2cc1OCCOCCNc1ccn3ncc-2c3n1
target: DAPK1 (DAPK1A) (Homo sapiens)
answer.label: class 1

chem.smiles: Cc1cc(Cl)ccc1CNC(=O)Nc1ccc2cc1OCCOCCNc1ccn3ncc-2c3n1
target: DAPK1 (DAPK1A) (Homo sapiens)
answer.label: class 1

chem.smiles: O=C(NCc1ccc(Cl)cc1F)Nc1ccc2cc1OCCOCCNc1ccn3ncc-2c3n1
target: DAPK1 (DAPK1A) (Homo sapiens)
answer.label: class 0

chem.smiles: COc1cc(CNC(=O)Nc2ccc3cc2OCCOCCNc2ccn4ncc-3c4n2)ccc1F
target: DAPK1 (DAPK1A) (Homo sapiens)
answer.label: class 0

chem.smiles: COc1ccc(CNC(=O)Nc2ccc3cc2OCCOCCNc2ccn4ncc-3c4n2)cc1F
target: DAPK1 (DAPK1A) (Homo sapiens)
answer.label: class 0

chem.smiles: C[C@H](NC(=O)Nc1ccc2cc1OCCOCCNc1ccn3ncc-2c3n1)c1ccccc1
target: DAPK1 (DAPK1A) (Homo sapiens)
answer.label: class 0
